Source of measurements: ChEMBL document CHEMBL1130047

IC50 reference
tested on: HeLa; experiment: Compound was tested for antiproliferative activity against HeLa, human cervix carcinoma; type: functional, cell-based
Give the quantity in µM, number only.

Give its IC50 value. Item: NC(=O)c1csc([C@@H]2O[C@H](CO)[C@@H](O)[C@H]2O)n1
100

Please do the same for NC(=O)c1c[se]c([C@@H]2O[C@H](CO)[C@@H](O)[C@H]2O)c1 as well.
6.4

Please do the same for NC(=O)c1c[se]c([C@@H]2O[C@H](CO)[C@@H](O)[C@H]2O)n1 as well.
7.9

Please do the same for NC(=O)c1csc([C@@H]2O[C@H](CO)[C@@H](O)[C@H]2O)c1 as well.
90
